Readings of Ki for the listed compounds
# SUBJECT_OF_TEST: UniProtKB Q12908
# Sequence (Q12908 1-348): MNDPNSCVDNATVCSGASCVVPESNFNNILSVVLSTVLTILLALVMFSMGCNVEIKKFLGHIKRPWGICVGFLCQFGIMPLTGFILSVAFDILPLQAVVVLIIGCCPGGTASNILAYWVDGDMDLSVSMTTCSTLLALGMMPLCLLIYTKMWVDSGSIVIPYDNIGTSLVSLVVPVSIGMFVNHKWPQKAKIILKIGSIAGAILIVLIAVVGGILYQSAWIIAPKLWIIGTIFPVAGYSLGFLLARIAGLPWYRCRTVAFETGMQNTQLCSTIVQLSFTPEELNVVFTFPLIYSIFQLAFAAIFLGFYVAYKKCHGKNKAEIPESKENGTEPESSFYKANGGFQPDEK
# TEST_PROTOCOL: ASBT cis-inhibition of taurocholate uptake in ASBT-MDCK cells
# TEST_SETTINGS: Ki, inhibitor concentration range 0-100 μM; mean±S.E.
Counter-ions that a name gives are not always drawn.
Kindly answer with a numeric value in µM, unit omitted.

The examples below pair each entry with its known result.
* COc1ccc([C@@H]2Sc3ccccc3N(CCN(C)C)C(=O)[C@@H]2OC(C)=O)cc1 [Diltiazem hydrochloride, diltiazem hydrochloride] | 174
* O=C(O)C[C@H](O)C[C@H](O)/C=C/c1c(C2CC2)nc2ccccc2c1-c1ccc(F)cc1 [Pitavastatin] | 60.9

Read the next record carefully.
Ki for NS(=O)(=O)c1cc2c(cc1C(F)(F)F)NC(Cc1ccccc1)NS2(=O)=O (stereo not drawn) [Bendroflumethiazide, bendroflumethiazide] ?
96.4

###

# SUBJECT_OF_TEST: excitatory amino acid transporters (SLC1A6, EAAT4) (Rattus norvegicus, UniProt O35921)
# Sequence (O35921 whole entry): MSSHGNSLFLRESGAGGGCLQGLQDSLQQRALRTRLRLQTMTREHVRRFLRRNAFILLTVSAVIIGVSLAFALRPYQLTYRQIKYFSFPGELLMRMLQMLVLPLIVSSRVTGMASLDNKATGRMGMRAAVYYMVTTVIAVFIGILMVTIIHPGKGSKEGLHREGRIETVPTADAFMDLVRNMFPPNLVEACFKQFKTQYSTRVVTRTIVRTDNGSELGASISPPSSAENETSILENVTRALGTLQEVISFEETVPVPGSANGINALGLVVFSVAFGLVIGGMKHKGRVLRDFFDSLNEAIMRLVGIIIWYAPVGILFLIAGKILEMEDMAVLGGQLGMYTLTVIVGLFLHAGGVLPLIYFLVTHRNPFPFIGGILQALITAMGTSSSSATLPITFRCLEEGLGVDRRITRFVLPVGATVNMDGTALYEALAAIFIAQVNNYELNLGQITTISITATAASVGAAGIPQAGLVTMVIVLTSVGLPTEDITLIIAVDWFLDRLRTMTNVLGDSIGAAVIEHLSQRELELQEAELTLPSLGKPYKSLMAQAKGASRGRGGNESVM
# TEST_PROTOCOL: EAAT4 cis-inhibition of glutamate uptake in stably transfected HEK 293 cells
# Type: cell-based
# TEST_SETTINGS: Reference Ki, from the comprehensive inhibition profile
Listing: Ki of selected compounds

- N[C@H](CC(=O)O)C(=O)O: 9.54 µM

Consider the record given below.
Fill in: Ki of N[C@@H](CC(=O)O)C(=O)O is ___
1.92 µM

###

# SUBJECT_OF_TEST: human apical sodium-dependent transporter (SLC10A2, ASBT) (Homo sapiens)
# TEST_PROTOCOL: ASBT cis-inhibition of taurocholate uptake in ASBT-MDCK cells
# TEST_SETTINGS: read-out: percent taurocholate inhibited at the highest inhibitor concentration
READOUT_KIND: inhibition at 200 µM
Don't forget the unit after the number, please.

Example cases with answers are listed next.
- NS(=O)(=O)c1cc2c(cc1C(F)(F)F)NC(Cc1ccccc1)NS2(=O)=O (stereo not shown) [Bendroflumethiazide, bendroflumethiazide]: 46.6%
- CN1CCN(CC/C=C2/c3ccccc3Sc3ccc(S(=O)(=O)N(C)C)cc32)CC1: 34.6%

Which measured inhibition at 200 µM value corresponds to N=C(N)c1ccc(OCCCCCOc2ccc(C(=N)N)cc2)cc1 [Pentamidine Isethionate, pentamidine isethionate] ?
52.7%

# query: inhibition at 200 µM of entry CC(C)c1nc(N(C)S(C)(=O)=O)nc(-c2ccc(F)cc2)c1/C=C/[C@@H](O)C[C@@H](O)CC(=O)O
53.3%

Please give the measured inhibition at 200 µM for this compound: COc1ccc2c(c1)c(CC(=O)O)c(C)n2C(=O)c1ccc(Cl)cc1
59.1%

// inhibition at 200 µM lookup, key: CC(C(=O)O)c1cccc(C(=O)c2ccccc2)c1 (stereo not shown)
34.2%

Entry CC(C)n1c(/C=C/C(O)CC(O)CC(=O)O)c(-c2ccc(F)cc2)c2ccccc21 (stereo not shown) : reported inhibition at 200 µM = ?
82.9%
